- SYSTEM_UNDER_TEST: 14-3-3ζ:BAD-112-136F interactions (Homo sapiens)
- Construct: expressed in transfected cells; host or cells: NIH-3T3 fibroblasts, bi-directional pBI-CMV1 plasmid
- Sequence (P63104 1-245): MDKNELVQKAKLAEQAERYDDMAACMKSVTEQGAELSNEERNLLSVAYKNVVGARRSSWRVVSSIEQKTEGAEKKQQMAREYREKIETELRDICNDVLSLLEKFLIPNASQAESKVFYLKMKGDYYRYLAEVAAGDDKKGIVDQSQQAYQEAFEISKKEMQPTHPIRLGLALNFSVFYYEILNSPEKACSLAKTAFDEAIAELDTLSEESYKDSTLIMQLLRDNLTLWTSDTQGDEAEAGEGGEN
- TEST_DETAILS: BRET sensor screen for disruption of 14-3-3ζ-Rluc8:BAD-112-136F-mCitrine in living NIH-3T3 cells
- Format: cell-based, murine
- MEASUREMENT_PARAMETERS: NIH-3T3 cells; hits from the primary screen
Numbered stars: 1 amine (or outer) side, 2 acyl side, 3 side chain; on linkers, the order of the positions; unused ones are H or OH. Bridge positions count the residues as written; N and C are the ends. Square brackets hold non-standard residues; d marks the D form. Peptide text beside a SMILES is read from it. * marks the point of attachment. pTerphenylCO(4''-OnC5H11) = CCCCCOc1ccc(-c2ccc(-c3ccc(C(=O)*)cc3)cc2)cc1; Orn(4R-OH,5R-OH) = O=C([C@H](C[C@@H](O)[C@@H](O)N[*:3])N[*:1])[*:2]; hTyr(3S-OH,4S-OH) = N[C@H](C(=O)O)[C@H](O)[C@@H](O)c1ccc(O)cc1; Pro(3S-OH,4S-Me) = C[C@H]1CN[C@H](C(=O)O)[C@H]1O; Hyp = O=C(O)[C@@H]1C[C@@H](O)CN1
Quick reference for BRET reduction on NIH-3T3 among some compounds

| COMPOUND | SYSTEM_UNDER_TEST | BRET reduction on NIH-3T3 |
| --- | --- | --- |
| O=c1[nH]c2ccccc2n1C1CCN(CCCC(c2ccc(F)cc2)c2ccc(F)cc2)CC1 [Pimozide] | 14-3-3ζ:BAD-112-136F interactions (Homo sapiens) | 38.4171 |
| Clc1ccc(COC(Cn2ccnc2)c2ccc(Cl)cc2Cl)c(Cl)c1 (stereo not shown) [Miconazole Nitrate] | 14-3-3ζ:BAD-112-136F interactions (Homo sapiens) | 52.8386 |
| CCCCCOc1ccc(-c2ccc(-c3ccc(C(=O)N[C@H]4C[C@@H](O)[C@@H](O)NC(=O)[C@@H]5[C@@H](O)[C@@H](C)CN5C(=O)[C@H]([C@@H](C)O)NC(=O)[C@H]([C@H](O)[C@@H](O)c5ccc(O)cc5)NC(=O)[C@@H]5C[C@@H](O)CN5C(=O)[C@H]([C@@H](C)O)NC4=O)cc3)cc2)cc1 [Anidulafungin] ({pTerphenylCO(4''-OnC5H11)}-[Orn(4R-OH,5R-OH)]T[Hyp][hTyr(3S-OH,4S-OH)]T[Pro(3S-OH,4S-Me)]; lactam 1-C) | 14-3-3ζ:BAD-112-136F interactions (Homo sapiens) | 27.0241 |
| C=CCc1ccc(O)c(-c2cc(CC=C)ccc2O)c1 [Magnolol] | 14-3-3ζ:BAD-112-136F interactions (Homo sapiens) | 33.2336 |

###

In this section, each of the compounds is paired with its reported cytotoxicity at 20 µM.
- Tested on: HT-29 cells
- TEST_DETAILS: Hoechst/propidium iodide cell death assay in HT-29
- Type: cell-based, human
- MEASUREMENT_PARAMETERS: Homo sapiens, HT-29, 24 h, 20 µM, 24 h; read-out: Percentage of cell death % 24h HT-29
Where a name gives a salt, the structure may show the parent alone.

| COMPOUND | SYSTEM_UNDER_TEST | UNIT_ABBREV | cytotoxicity at 20 µM |
| --- | --- | --- | --- |
| C[C@@H](NCCCc1cccc(C(F)(F)F)c1)c1cccc2ccccc12 | HT-29 cells | % | 30 |
| CN(C(=O)CN(CCO)CC(=O)N(C)C(C)(C)Cc1ccccc1)C(C)(C)Cc1ccccc1 | HT-29 cells | % | 3.21 |
| CC(C)(C)c1ccc(C(O)CCCN2CCC(C(O)(c3ccccc3)c3ccccc3)CC2)cc1 (centres unmarked) | HT-29 cells | % | 81.9 |
| CC/C(=C(\c1ccccc1)c1ccc(OCCN(C)C)cc1)c1ccccc1 [Tamoxifen Citrate] | HT-29 cells | % | 5.86 |
| NC(=O)N1CCC(CC(=O)N2CCC([C@H]3c4ncc(Br)cc4CCc4cc(Cl)cc(Br)c43)CC2)CC1 | HT-29 cells | % | 1.12 |
| C[C@H](CCC(=O)O)[C@H]1CC[C@H]2[C@@H]3[C@H](O)C[C@@H]4C[C@H](O)CC[C@]4(C)[C@H]3CC[C@]12C | HT-29 cells | % | 1.21 |
| c1ccc(-c2ccc(C(c3ccccc3)n3ccnc3)cc2)cc1 (centres unmarked) | HT-29 cells | % | 1.45 |
| COc1cc2nccc(Oc3ccc(NC(=O)Nc4cc(C)on4)c(Cl)c3)c2cc1OC | HT-29 cells | % | 1.65 |
| CO/N=C1\C[C@]2(C[C@@H]3C[C@@H](C/C=C(\C)C[C@@H](C)/C=C/C=C4\CO[C@@H]5[C@H](O)C(C)=C[C@@H](C(=O)O3)[C@]45O)O2)O[C@H](/C(C)=C/C(C)C)[C@H]1C | HT-29 cells | % | 8.61 |
| Cc1ccc(Sc2ccccc2N2CCNCC2)c(C)c1 | HT-29 cells | % | 7.35 |
| CC(C)(O)c1ccccc1CC[C@@H](SCC1(CC(=O)O)CC1)c1cccc(/C=C/c2ccc3ccc(Cl)cc3n2)c1 [Montelukast Sodium] | HT-29 cells | % | 0.524 |
| C=C1/C(=C\C=C2/CCC[C@]3(C)[C@@H]([C@H](C)CCCC(C)(C)O)CC[C@@H]23)C[C@@H](O)C[C@@H]1O | HT-29 cells | % | 0.461 |
| O=C1c2c(O)ccc(O)c2C(=O)c2c(NCCNCCO)ccc(NCCNCCO)c21 [Mitoxantrone HCl] | HT-29 cells | % | 0 |
| COc1cc(C(=O)O)ccc1NC(=O)[C@@H]1N[C@@H](CC(C)(C)C)[C@](C#N)(c2ccc(Cl)cc2F)[C@H]1c1cccc(Cl)c1F | HT-29 cells | % | 9.54 |

###

- System: HT-29 cells
- TEST_DETAILS: Hoechst/propidium iodide cell death assay in HT-29
- Assay type: cell-based, human
- MEASUREMENT_PARAMETERS: Homo sapiens, HT-29, 24 h, 20 µM, 24 h; read-out: Percentage of cell death % 24h HT-29
# key: entry, value: cytotoxicity at 20 µM

| COMPOUND | cytotoxicity at 20 µM (%) |
| --- | --- |
| CCOC(=O)C1=C(C)NC(C)=C(C(=O)OCC)C1c1ccccc1/C=C/C(=O)OC(C)(C)C [Lacidipine] | 1.94 |
| CC1(C)Cc2c(-c3ccccc3)c(-c3ccc(Cl)cc3)c(CC(=O)O)n2C1 [Licofelone] | 2.67 |
| CCOC(=O)N1CCC(=C2c3ccc(Cl)cc3CCc3cccnc32)CC1 [Loratadine] | 0.925 |
| C=C[C@@H]1C[C@]1(NC(=O)[C@@H]1C[C@@H]2CN1C(=O)[C@H](C(C)(C)C)NC(=O)O[C@@H]1C[C@H]1CCCCCc1nc3ccc(OC)cc3nc1O2)C(=O)NS(=O)(=O)C1CC1 [MK-5172] | 0.694 |
| Clc1ccc(CCC(Cn2ccnc2)Sc2c(Cl)cccc2Cl)cc1 (stereo not drawn) [Butoconazole nitrate] | 1.75 |
| CCc1c(Cl)c(O)c(Cl)c(O)c1C(=O)O[C@H]1[C@H](O)[C@H](OC)[C@H](OC/C2=C\C=C\C[C@H](O)/C(C)=C/[C@H](CC)[C@@H](O[C@@H]3OC(C)(C)[C@@H](OC(=O)C(C)C)[C@H](O)[C@@H]3O)/C(C)=C/C(C)=C/C[C@@H]([C@@H](C)O)OC2=O)O[C@@H]1C [Fidaxomicin] | 2.31 |

###

- SYSTEM_UNDER_TEST: 14-3-3ζ:BAD-112-136F interactions (Homo sapiens)
- Construct: expressed in transfected cells; host or cells: NIH-3T3 fibroblasts, bi-directional pBI-CMV1 plasmid
- TEST_DETAILS: BRET sensor screen for disruption of 14-3-3ζ-Rluc8:BAD-112-136F-mCitrine in living NIH-3T3 cells
- Type: cell-based, murine
- Design: unit not given here
- MEASUREMENT_PARAMETERS: NIH-3T3 cells; hits from the primary screen
Decision: BRET reduction on NIH-3T3 >= 50 yields rule met, all other cases yield rule not met.

| COMPOUND | LABEL |
| --- | --- |
| CC/C(=C(\c1ccccc1)c1ccc(OCCN(C)C)cc1)c1ccccc1 | rule met |
| Cc1ccc(C(=O)Nc2ccc(CN3CCN(C)CC3)c(C(F)(F)F)c2)cc1C#Cc1cnc2cccnn12 | rule not met |
| COC(=O)[C@]12CCC(C)(C)C[C@H]1[C@H]1C(=O)C=C3[C@@]4(C)C=C(C#N)C(=O)C(C)(C)[C@@H]4CC[C@@]3(C)[C@]1(C)CC2 | rule not met |
| COc1cc(C)c(/C=C/C(C)=C/C=C/C(C)=C/C(=O)O)c(C)c1C | rule not met |
| C[C@H]1O[C@@H](O[C@H]2CC[C@@]3(C)[C@@H](CC[C@]4(C)[C@@H]3C=C[C@]35OC[C@@]6(CCC(C)(C)C[C@H]63)[C@@H](O)C[C@]54C)[C@]2(C)CO)[C@H](O)[C@@H](O[C@@H]2O[C@H](CO)[C@@H](O)[C@H](O)[C@H]2O)[C@H]1O | rule met |
| Cc1ccc(C(=O)N(CCCN)[C@@H](c2nc3cc(Cl)ccc3c(=O)n2Cc2ccccc2)C(C)C)cc1 [Ispinesib (SB-715992), Ispinesib] | rule not met |
| CCCCCCCCCCCCCCCC[N+](C)(C)C [Cetrimonium Bromide (CTAB), Cetrimonium Bromide] | rule not met |
| Oc1cc(Cl)ccc1Oc1ccc(Cl)cc1Cl | rule not met |
| CO[C@H]1C[C@H](O[C@H]2[C@H](C)O[C@@H](O[C@@H]3/C(C)=C/C[C@@H]4C[C@@H](C[C@]5(C=C[C@H](C)[C@@H](C6CCCCC6)O5)O4)OC(=O)[C@@H]4C=C(C)[C@@H](O)[C@H]5OC/C(=C\C=C\[C@@H]3C)[C@]54O)C[C@@H]2OC)O[C@@H](C)[C@@H]1O | rule not met |
